These data points were gathered from patent US11207312B2.

Consider the following molecules and their measured pIC50 readings.
Molecular target: NDM-1 (Klebsiella pneumoniae)
Sequence (C7C422 whole entry, looked up, species assumed): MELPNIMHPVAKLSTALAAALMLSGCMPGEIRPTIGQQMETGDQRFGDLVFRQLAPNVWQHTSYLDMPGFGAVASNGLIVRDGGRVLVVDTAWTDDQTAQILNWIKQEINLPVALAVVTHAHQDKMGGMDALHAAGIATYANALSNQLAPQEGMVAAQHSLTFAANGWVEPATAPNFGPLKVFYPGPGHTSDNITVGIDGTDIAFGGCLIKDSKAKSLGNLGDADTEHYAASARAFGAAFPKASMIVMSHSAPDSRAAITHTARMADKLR
pIC50: −log10 of the molar value.

{"columns": ["molecule", "pIC50"],
 "data": [
  ["NS(=O)(=O)c1ccc(N2CCC3(CCNCC3)C2=O)c(-c2nn[nH]n2)c1S(N)(=O)=O [Example 134]", 6.74],
  ["NCCOC1CCN(c2ccc(S(=O)(=O)NC[C@H](O)CN)c(S(N)(=O)=O)c2-c2nn[nH]n2)CC1 [Example 209]", 9.02],
  ["NCC(O)C1CCN(c2ccc(S(=O)(=O)NC[C@H](O)CN)c(S(N)(=O)=O)c2-c2nn[nH]n2)CC1 (some centres unmarked) [Example 132]", 8.87],
  ["CNCC1CCN(c2ccc(S(=O)(=O)N[C@@H]3CCNC3)c(S(N)(=O)=O)c2-c2nnn[nH]2)CC1 [Example 74]", 8.52],
  ["NS(=O)(=O)c1c(S(=O)(=O)N[C@@H]2CCNC2)ccc(N2CCNC(CO)CC2)c1-c1nn[nH]n1 (some centres unmarked) [Example 127]", 7.72],
  ["NC[C@@H](O)CNS(=O)(=O)c1ccc(N2CCC(C(N)CO)CC2)c(-c2nn[nH]n2)c1S(N)(=O)=O (mixture of isomers) [Example 182]", 8.42],
  ["NCC1=CCN(c2ccc(S(=O)(=O)NC[C@H](O)CN)c(S(N)(=O)=O)c2-c2nn[nH]n2)CC1 [Example 175]", 8.59],
  ["NS(=O)(=O)c1c(S(=O)(=O)N[C@@H]2CCNC2)ccc(N2CCC(F)(CO)CC2)c1-c1nnn[nH]1 [Example 91]", 9.38],
  ["NS(=O)(=O)c1c(S(=O)(=O)N[C@@H]2CCNC2)ccc(N2CCC(CO)CC2=O)c1-c1nn[nH]n1 (some centres unmarked) [Example 157]", 9.62],
  ["NC[C@@H](O)CNS(=O)(=O)c1ccc(N2CCC3(CC2)CC3N)c(-c2nn[nH]n2)c1S(N)(=O)=O (some centres unmarked) [Example 12]", 8.82],
  ["NC[C@@H](O)CNS(=O)(=O)c1ccc(N2CCC(C(N)CO)CC2)c(-c2nn[nH]n2)c1S(N)(=O)=O (single isomer, unassigned) [Example 181]", 8.34],
  ["NC[C@@H](O)CNS(=O)(=O)c1ccc(N2CCC3CNCC3C2)c(-c2nnn[nH]2)c1S(N)(=O)=O (some centres unmarked) [Example 141]", 7.80],
  ["NCCN1CCN(c2ccc(S(=O)(=O)N[C@@H]3CCNC3)c(S(N)(=O)=O)c2-c2nnn[nH]2)CC1 [Example 76]", 8.36],
  ["NCCNS(=O)(=O)c1ccc(N2CCC(CO)CC2)c(-c2nnn[nH]2)c1S(N)(=O)=O [Example 43]", 9.29]
]}
